target: HCMV C-A (Human cytomegalovirus, UniProt P16753, A143V/A209V/C138A/C202A/C84A/C87A); test: In-gel fluorescence competition assay in HFF-1 cell lysate; assay type: binding
READOUT_NAME: EC50 (µM)
Write the answer as a number in µM, unit excluded.

Q: // EC50 lookup, key: O=C(CCl)Cn1nnc(-c2ccccc2)c1COC(=O)NCc1ccccc1
A: 3

----------
Examples of compounds with documented kinact/KI HCMV C-A follow.
target: HCMV C-A (Human cytomegalovirus, UniProt P16753, A143V/A209V/C138A/C202A/C84A/C87A)
Write the answer as a number in min⁻¹ µM⁻¹, unit excluded.

Examples with answers:
{"LINE_NOTATION": "COCCNC(=O)OCc1c(-c2ccccc2)nnn1CC(=O)CCl", "ASSAYED_SYSTEM": "HCMV C-A (Human cytomegalovirus, UniProt P16753, A143V/A209V/C138A/C202A/C84A/C87A)", "kinact/KI HCMV C-A / min⁻¹ µM⁻¹": 0.00076}
{"LINE_NOTATION": "O=C(CCl)Cn1nnc(-c2ccccc2)c1COC(=O)NCCCN1CCCC1=O", "ASSAYED_SYSTEM": "HCMV C-A (Human cytomegalovirus, UniProt P16753, A143V/A209V/C138A/C202A/C84A/C87A)", "kinact/KI HCMV C-A / min⁻¹ µM⁻¹": 0.00076}
{"LINE_NOTATION": "O=C(CCl)Cn1nnc(-c2ccccc2)c1COC(=O)NCc1ccccc1", "ASSAYED_SYSTEM": "HCMV C-A (Human cytomegalovirus, UniProt P16753, A143V/A209V/C138A/C202A/C84A/C87A)", "kinact/KI HCMV C-A / min⁻¹ µM⁻¹": 0.0027}
{"LINE_NOTATION": "O=C(CCl)Cn1nnc(-c2ccccc2)c1COC(=O)N1CCOCC1", "ASSAYED_SYSTEM": "HCMV C-A (Human cytomegalovirus, UniProt P16753, A143V/A209V/C138A/C202A/C84A/C87A)", "kinact/KI HCMV C-A / min⁻¹ µM⁻¹": 0.00077}

Q: // kinact/KI HCMV C-A lookup, key: O=C(CCl)Cn1cc(-c2ccccc2)nn1
A: 0.00068
